Please provide measured EC50 for the entries that follow.
Molecular target: recombinantly produced human-NGF (human, UniProt P01138 122-241, limits assumed)
Sequence (P01138 122-241 limits assumed): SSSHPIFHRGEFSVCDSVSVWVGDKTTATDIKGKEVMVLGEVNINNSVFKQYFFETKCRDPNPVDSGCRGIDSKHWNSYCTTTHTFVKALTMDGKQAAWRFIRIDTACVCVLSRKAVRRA
Assay: ELISA, human NGF coated, IgG titrated
One number for each entry, in ng/mL.

Please state EC50 for every binder in the list that follows.
1. Ab14 (antibody, human IgG1, V domains shown) VH: EVQLVQSGAEVKKPGATVKISCKVSGYSFITYWISWVQQAPGKGLEWMGAIDPSDSDARYSPSFQGRVTITADTSTDTAYMELSSLRSEDTAVYYCAKSDPGYSGYSLLYGFDSWGQGTLVTVSS VL: DVVMTQSPLSLPVTLGQPASISCRSSQSLVQRNGNTYLSWYQQRPGQSPRLLIYQVSNRYSGVPDRFSGSGSGTDFTLKISRVEAEDVGVYYCGQGAHLPLTFGQGTKVEIK
2. Ab11 (antibody, human IgG1, V domains shown) VH: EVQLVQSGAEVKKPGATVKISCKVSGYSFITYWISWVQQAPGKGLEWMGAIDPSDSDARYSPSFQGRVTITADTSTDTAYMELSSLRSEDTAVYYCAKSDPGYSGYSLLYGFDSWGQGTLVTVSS VL: DIVMTQTPLSSPVTLGQPASISCRSSQSLVQRNGNTYLSWLQQRPGQPPRLLIYQVSNRYSGVPDRFSGSGAGTDFTLKISRVEAEDVGVYYCGQGAHLPLTFGQGTKVEIK
3. Ab43 (antibody, human IgG1, V domains shown) VH: EVQLVQSGAEVKKPGESLKISCKGSGYSFITYWISWVRQMPGKGLEWMGAIDPSDSDARYSPSFQGQVTISADKSISTAYLQWSSLKASDTAMYYCAKSDPGYSGYSLLYGFDSWGQGTLVTVSS VL: DVVMTQSPLSLPVTLGQPASISCRSSQSLVQRNGNTYLSWFQQRPGQSPRLLIYQVSNRYSGVPDRFSGSGSGTDFTLKISRVEAEDVGVYYCGQGAHLPLTFGQGTKVEIK
4. Ab9 (antibody, human IgG1, V domains shown) VH: EVQLVQSGAEVKKPGATVKISCKVSGYTFITYWISWVQQAPGKGLEWMGAIDPSDSDARYSPSFQGRVTITADTSTDTAYMELSSLRSEDTAVYYCAKSDPGYSGYSLLYGFDSWGQGTLVTVSS VL: DIVMTQSPLSLPVTLGQPASISCRSSQSLVQRNGNTYLSWYQQRPGQPPRLLIYQVSNRYSGVPDRFSGSGSGTDFTLKISRVEAEDVGVYYCGQGAHLPLTFGQGTKVEIK
5. Ab39 (antibody, human IgG1, V domains shown) VH: EVQLVQSGAEVKKPGATVKISCKVSGYTFITYWISWVQQAPGKGLEWMGAIDPSDSDARYSPSFQGRVTITADKSTDTAYMELSSLRSEDTAVYYCAKSDPGYSGYSLLYGFDSWGQGTLVTVSS VL: DIVMTQSPLSLPVTLGQPASISCRSSQSLVQRNGNTYLSWYQQRPGQPPRLLIYQVSNRYSGVPDRFSGSGSGTDFTLKISRVEAEDVGVYYCGQGAHLPLTFGQGTKVEIK

Result:
1. 0.0351
2. 0.032
3. 0.0221
4. 0.0876
5. 0.0208

Cited source: patent US20230220057A1
